- Measured on: T1, p19 (Carnation Italian ringspot virus (CIRV), UniProt Q66104 1-172)
- T1 sequence: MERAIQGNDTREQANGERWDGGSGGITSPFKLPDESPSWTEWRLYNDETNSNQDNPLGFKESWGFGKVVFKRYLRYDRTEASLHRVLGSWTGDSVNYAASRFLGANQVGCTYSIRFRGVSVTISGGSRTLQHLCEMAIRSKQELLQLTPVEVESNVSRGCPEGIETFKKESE
- Assay summary: EMSA
- Condition info: protein: recombinant; tags: GST (pGEX-6P-1) removed by PreScission protease; chain copies: 2; 2 nt 3' overhangs
Recorded endpoint: Kd
# output: number + unit

Entry under test: gf698 siRNA (dsRNA, 5' phosphate on both strands) RNA 1: UAGUUCAUCCAUGCCAUGUGU RNA 2: ACAUGGCAUGGAUGAACUAUA . Its Kd was 0.06 nM

Where these numbers come from: paper PMC5915741
